Assay: ACEA_ER_AUC_viability: ACEA Biosciences xCELLigence Real-Time Cell Analysis on Estrogen Receptor Agonism for Viability (AID 2283782);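 also: continuous compound exposure with impedance area under curve over 80 h; hit means loss of impedance signal meaning reduced cell growth or viability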
Records with an inconclusive call do not appear. Active and inactive are the calls of the source. The calls were made as follows: active = hit-call score of the fitted dose curve at least 0.9, where 1 is the maximum; inconclusive = response in the unintended direction; inactive = score below 0.9.
// allowed return values: active, inactive

Per the assay record, what outcome was assigned to CCCCOC(=O)C(C)CC (configuration not stated) ? inactive

Same lookup for CO[Si](C)(C)OC , please. inactive

Same lookup for Oc1ccc(-c2ccccc2)c(Cl)c1 , please. active

Same lookup for Clc1cccnc1 , please. inactive

Same lookup for CC(C)COC(=O)CC(C(=O)OCC(C)C)S(=O)(=O)O (configuration not stated) , please. inactive

Same lookup for O=C(Cl)c1c(Cl)c(Cl)c(C(=O)Cl)c(Cl)c1Cl , please. inactive

Same lookup for CCCCc1ccc(Cl)cc1 , please. inactive

Same lookup for CCC(C)c1ccccc1 (configuration not stated) , please. inactive

Same lookup for CC(C)c1ccc(O)c(C(C)C)c1 , please. active

Same lookup for CCCc1ccc(O)c(OC)c1 , please. inactive

Same lookup for CC=C(C)C=CC=C(C)C , please. active

Same lookup for c1ccc2c(c1)[nH]c1ccccc12 , please. active

Same lookup for CC(=O)CCC1=C(C)CCCC1(C)C , please. active

Same lookup for CCN1CN(CC)CN(CC)C1 , please. active

Same lookup for CC(C)(C)C1CCC(=O)CC1 , please. inactive

Same lookup for CC(=O)CC(=O)Nc1ccccc1C , please. inactive

Same lookup for O=C(O)c1cc(O)c2ccccc2c1O , please. active

Same lookup for CC1=CC(C)C(C=O)CC1 (configuration not stated) , please. inactive

Same lookup for COC(=O)c1ccccc1C , please. inactive

Same lookup for CCCCC(C=O)CC (configuration not stated) , please. inactive

Same lookup for CC(C)(c1ccccc1)c1ccc(Nc2ccc(C(C)(C)c3ccccc3)cc2)cc1 , please. inactive

Same lookup for CCOC(=O)OC(=O)OCC , please. inactive

Same lookup for CCC(=O)C1CC(C(C)C)CC=C1C (configuration not stated) , please. inactive

Same lookup for CCCCCC[C@@H](O)C/C=C\CCCCCCCC(=O)OCC(O)CO (some centres not stated) , please. inactive

Same lookup for CCCC/C=C/C=C\C=O , please. active

Same lookup for Nc1ccnc(=O)[nH]1 , please. inactive

Same lookup for CC(C)=CCl , please. inactive

* * *

Target: Transcriptional activator Myb (Homo sapiens) (UniProt P10242)
Sequence (P10242 whole entry, looked up): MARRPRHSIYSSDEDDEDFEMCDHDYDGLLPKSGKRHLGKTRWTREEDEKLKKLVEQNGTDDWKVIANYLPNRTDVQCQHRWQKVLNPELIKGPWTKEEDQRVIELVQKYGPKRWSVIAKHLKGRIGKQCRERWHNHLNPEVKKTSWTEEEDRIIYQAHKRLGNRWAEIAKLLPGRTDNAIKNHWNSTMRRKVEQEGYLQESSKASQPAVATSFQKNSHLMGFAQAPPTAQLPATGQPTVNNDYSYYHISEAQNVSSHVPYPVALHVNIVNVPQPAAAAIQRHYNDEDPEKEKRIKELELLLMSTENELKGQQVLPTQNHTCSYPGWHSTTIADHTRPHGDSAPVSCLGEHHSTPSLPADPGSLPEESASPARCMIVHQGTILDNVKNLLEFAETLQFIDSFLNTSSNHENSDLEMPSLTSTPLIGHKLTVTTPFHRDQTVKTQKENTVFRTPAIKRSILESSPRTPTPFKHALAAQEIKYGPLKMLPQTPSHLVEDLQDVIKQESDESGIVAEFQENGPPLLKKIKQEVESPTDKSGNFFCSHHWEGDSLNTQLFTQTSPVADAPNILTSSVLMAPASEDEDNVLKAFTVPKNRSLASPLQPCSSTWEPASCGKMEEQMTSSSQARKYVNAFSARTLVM
Assay: ATG_Myb_CIS: Attagene CIS-FACTORIAL HepG2 Assay for human Myeloblastosis (Myb) Proto-Oncogene Transcription Factor (AID 2282986)
Conditions: HepG2 Attagene CIS-FACTORIAL Myb reporter transcription; actives raise or lower the signal
Activity calls are given as the source filed them. The calls were made as follows: active = hit-call score of the fitted dose curve at least 0.9, where 1 is the maximum; inactive = score below 0.9.
QUANTITY_MEASURED: outcome

Sample answers from the record:
[[record]]
compound = "CO[Si](CCCS)(OC)OC"
target_or_test_system = "Transcriptional activator Myb (Homo sapiens) (UniProt P10242)"
quantity_measured = "outcome"
readout_value = "inactive"

[[record]]
compound = "Cc1c[nH]c(=O)[nH]c1=O"
target_or_test_system = "Transcriptional activator Myb (Homo sapiens) (UniProt P10242)"
quantity_measured = "outcome"
readout_value = "inactive"

[[record]]
compound = "C/C=C/C=C/CCCCCCCO"
target_or_test_system = "Transcriptional activator Myb (Homo sapiens) (UniProt P10242)"
quantity_measured = "outcome"
readout_value = "inactive"

[[record]]
compound = "O=C(O)c1ccc2c(c1)C(=O)OC2=O"
target_or_test_system = "Transcriptional activator Myb (Homo sapiens) (UniProt P10242)"
quantity_measured = "outcome"
readout_value = "inactive"

[[record]]
compound = "CCOC(=O)c1ccc(C)cc1"
target_or_test_system = "Transcriptional activator Myb (Homo sapiens) (UniProt P10242)"
quantity_measured = "outcome"
readout_value = "inactive"


Look up outcome for this compound: C=CC(C)(CCC=C(C)C)OC(=O)C=Cc1ccccc1 (configuration not stated) inactive

Same lookup for Cn1cccc1 , please. inactive
